meta.source: the supplement of paper PMC12764529

folding stability dG unfold by entry:
Measurement Description: folding stability dG unfold (combined trypsin and chymotrypsin); higher = more stable
Quick reminder: number only, in kcal/mol, skip the unit.

Known folding stability dG unfold results, listed for orientation:
{"Sequence Code": "SAGGLLEELGLEIEEVEVEVEEVEVGQTVRIRVKVKGEDGEEFEIELEIRLPPPPVEVEEEVEEEEESAGGS [r8_216_TrROS_Hall]", "Quantity": "folding stability dG unfold", "Measured": 1.82}
{"Sequence Code": "SAGGSAGGSAGGAAPNTFKVRLELKVKVEKRTYKNEDGSTYEVDSISVELKIEIEPLPDSAGGSAGGSAGGS [r10_1212_TrROS_Hall]", "Quantity": "folding stability dG unfold", "Measured": 5.66}
{"Sequence Code": "SAGGSAGGSAGKIYIVKLPNETIEIEFEGTEEEAIDFAIKELEKLFPKPIPKDDIIILGGSAGGSAGGSAGG [r11_1028_TrMRF]", "Quantity": "folding stability dG unfold", "Measured": 1.71}
{"Sequence Code": "SAGGSAGGSAGGDRLKIIIPFPPGMDIDQIAEELKPHFKKVEIEHDKEDGWVTIEVELDSAGGSAGGSAGGS [r10_1007_TrROS]", "Quantity": "folding stability dG unfold", "Measured": 0.939}
{"Sequence Code": "SAGGSMKIVEIKIKRNKNGKLTIEIKVELSEEELEDKEKRKKLIEELAKKLAEELEKKFGIKVEVPSAGGSA [r2_306_TrROS_Hall]", "Quantity": "folding stability dG unfold", "Measured": 3.28}

QUERY: Fill blank: measured folding stability dG unfold of the sequence SAGGSAGGSAGMMEEKLIKEYEDPNGGKKYTIKLVKDPKTGKEKIVKETIEPNKKTTEIKNLSAGGSAGGSA [r18_444_JUSTAS] is ____.
RESULT: -0.365

QUERY: Fill blank: measured folding stability dG unfold of the sequence SAGGSKKTLTITVKNKETGETVKIKVELTPDGKKIKITIVAKKEEEAKEAAKKLLEELGYKVEIVPSAGGSA [r2_30_TrROS_Hall] is ____.
RESULT: 2.09

* * *

Measurement Description: folding stability dG unfold from chymotrypsin proteolysis; higher = more stable
Quantity: folding stability dG unfold
Please state the value followed by its unit.

Known folding stability dG unfold results, listed for orientation:
{"Sequence Code": "SSSVVESSYDPSTGTLTVTVSYDFPPAPPAAATSSTTPVGSNSYTGSGSYTSPAGASSLSSTATGPPTLSSA [r9_780_JUSTAS]", "folding stability dG unfold": "1.15 kcal/mol"}
{"Sequence Code": "SAGGSAGGSEEELKKLLDNIKEVKVVENENGEKYVVFTVTDKNGKKITIVAKSPEARELAKKLSAGGSAGGS [r12_466_TrROS_Hall]", "folding stability dG unfold": "2.35 kcal/mol"}
{"Sequence Code": "SAGKKKVIIVKVKPEDLEKLLEAIKKLPKEKVKRIEIEVNGKLYLIEVTDKEIKIYDIETGEEKTIKLSAGG [r19_154_TrROS_Hall]", "folding stability dG unfold": "2.6 kcal/mol"}
{"Sequence Code": "SAGGSAGGSAGGGSVTRLPDGVTTVVTFPDGSTVTVPAGVPYTDPNAATPVTVSPVPPALSAGGSAGGSAGG [r7_968_JUSTAS]", "folding stability dG unfold": "0.119 kcal/mol"}
{"Sequence Code": "SAGGMKIIEIEDRGPGKFAGPETVLEALRKALPGIPIEVLDYDPEKHVIRIRVPEEAVPRIVEAFKSSAGGS [r8_235_TrMRF]", "folding stability dG unfold": "3.96 kcal/mol"}
{"Sequence Code": "SPSTTVETTVTIPYTYRLPDGTVLEYNLTISVTASLTNGGISTGDLKSAIDTALAAANIPPGPPDLPLLLRS [r1_175_JUSTAS]", "folding stability dG unfold": "2.31 kcal/mol"}

Now let's try a different one.
QUERY: Fill blank: measured folding stability dG unfold of the sequence SASPALELAKEIAEKIEPLFPDISPVEVTVTPRGSTALGTIKFKRPDGKELVAKMIVSAGGDPVEIILLSAG [r14_719_JUSTAS] is ____.
RESULT: 1.26 kcal/mol

* * *

Measurement Description: folding stability dG unfold (combined trypsin and chymotrypsin); higher = more stable
Categories are assigned from the measured folding stability dG unfold using these intervals: b0 = under 0.9 kcal/mol, b1 = from 0.9 kcal/mol up to 3 kcal/mol, b2 = 3 kcal/mol and over

{"Sequence Code": "SAGGKMVIVKIRIKERKVKVEKTKDGKEKKVEVEEKEKEITLIVEGSEEEVKKLAEELEKLGLEVEVISAGG [r13_452_TrROS_Hall]", "Answer Label": "b1"}
{"Sequence Code": "SAGGSAGGSAGGPSDVTLLEEEVEELPNGTIKTRYTFKLPNGELAEAESTTPLEGPFHHSAGGSAGGSAGGS [r10_532_JUSTAS]", "Answer Label": "b0"}
{"Sequence Code": "SAGGETRTFMFPFKPGMPLEEIIEELIDVLQKKGKDYPIEFKPIEPDPNGYMLFMATVTNNKITIFWSAGGS [r8_7_TrROS]", "Answer Label": "b1"}
{"Sequence Code": "SAMKVYIAASSPEEIEGWIEEARKAGIDGPELIFVSPDDRVYKAEIIPNTGEVKIEPVKPIEELLKELPSAG [r14_913_TrMRF]", "Answer Label": "b1"}
{"Sequence Code": "SAGGSGGSTTPTFEEHVITGPLPVEIKVKKTTLNVTGSSAPSTTTTTTFYDPSGKKLSTKTTTTSSSAGGSA [r2_215_JUSTAS]", "Answer Label": "b0"}

QUERY: Field: class (folding stability dG unfold) — entry: SAGGSAGGSAGKIWIYNPENGWIFEISIQPHPMPNDDGEPQWMFSIDVEVYPPGKPGQPISAGGSAGGSAGG [r11_531_TrROS]
RESULT: b2

QUERY: Field: class (folding stability dG unfold) — entry: SAGKKKVLLAVDPENNALVLVEYETVGDVTFVRSLVFHGNTTTETLGLVRVIEPGKTEKLLISVPIPPSAGG [r19_292_TrMRF]
RESULT: b1

* * *

folding stability dG unfold by entry:
Measurement Description: folding stability dG unfold (combined trypsin and chymotrypsin); higher = more stable
Quick reminder: number only, in kcal/mol, skip the unit.

Known folding stability dG unfold results, listed for orientation:
{"Sequence Code": "SAGGMIEKIKEAAKKLGLKVKIEEVKFDKKTKKVTIKITLENGKKIEITVEMSEEELLNAIKELIKKSAGGS [r16_153_TrROS_Hall]", "folding stability dG unfold / kcal/mol": 3.34}
{"Sequence Code": "SAGGSAGGSAGPPPIEELLEQAKKNPNRPITIRNPGGYYIRITVKPDPNGKPEVEIEPVPSAGGSAGGSAGG [r11_300_TrROS]", "folding stability dG unfold / kcal/mol": 0.263}

Now let's try a different one.
QUERY: Fill blank: measured folding stability dG unfold of the sequence SAGGSAGGSAGGGLSSAPPPVVALSSSVSLVPSPSGGILTVTTTTDAGSGTTTTTTTALSAGGSAGGSAGGS [r10_1137_JUSTAS] is ____.
RESULT: 1.71

* * *

Measurement Description: folding stability dG unfold (combined trypsin and chymotrypsin); higher = more stable
folding stability dG unfold by entry:

{"Sequence Code": "SAGGMLLLTLTVDRVEEAEFPEKVPYLRTTTQPVVVPGTTLEEAEAVAAALAAAHGVPVTLTVTPETGSAGG [r13_320_JUSTAS]", "folding stability dG unfold": "-0.189 kcal/mol"}
{"Sequence Code": "SAGGSAGGSAGGWYRIKWPNGHEYPVKVDEIDPDGNIKVEPPNDEEHKFPADGMKIEPLPSAGGSAGGSAGG [r7_823_TrROS]", "folding stability dG unfold": "< -1 kcal/mol"}
{"Sequence Code": "SAGGSAGGSAGPEILIVVESEEEAKKLAEELARALREAGLPEDAKIKIKIIVLPKEELEKSAGGSAGGSAGG [r17_180_TrROS_Hall]", "folding stability dG unfold": "2.12 kcal/mol"}
{"Sequence Code": "SAGGSAGGSAKPTFDNVENLSLEELAKKIAKEAAEKYPDAKNVEVEFRLPNGKSYRIVVDVDSAGGSAGGSA [r18_449_TrMRF]", "folding stability dG unfold": "1.26 kcal/mol"}
{"Sequence Code": "SAGGSAGGSAGGSMPVKLDEIIDYDPKKKVLTVLLTHPDGSKSLVVVPGKSIEEIKEANSAGGSAGGSAGGS [r4_357_TrMRF]", "folding stability dG unfold": "0.648 kcal/mol"}
{"Sequence Code": "SAGGSMVIRVETPEEAEEAARELAERLRELFPEVKELEIKVKVEVVDEETGEEKEYEFTIKLKLPPSAGGSA [r2_393_TrROS_Hall]", "folding stability dG unfold": "2.62 kcal/mol"}
{"Sequence Code": "SDKVEIWIPIPDGFWVRIKYDKPGKREITIWMPEDNPEFRKHGSMDQFIKHLARKLGLDPDKVKVDMYPMSA [r9_401_TrROS]", "folding stability dG unfold": "3.69 kcal/mol"}
{"Sequence Code": "MKIIDVVPTPDGLIVVIKVVFPNTEEAYVSASDLDKLIKEIFERFGVKPEYLKITDIKAFSPEELKEFLEES [r1_119_TrMRF]", "folding stability dG unfold": "2.78 kcal/mol"}
{"Sequence Code": "SAGGSAGGSANYMIKITIEYTPPNGKKEEVEVTVPGMPIDQLLNNLPPEYPVEIKDIEIYPGSAGGSAGGSA [r18_32_TrROS]", "folding stability dG unfold": "0.326 kcal/mol"}
{"Sequence Code": "SAGGSAGALLVRFNDPELVRELIEALPFDALVERDPDDPNVLLVTLFTDGPLEEAVRAVREALGLESAGGSA [r15_118_TrMRF]", "folding stability dG unfold": "2.98 kcal/mol"}

QUERY: Fill blank: measured folding stability dG unfold of the sequence SAGGSAGGSAATKQITYTPPGSNRTYSFTATLTEEDPVTGRKLLELTLPDGTPITLPEGELGSAGGSAGGSA [r18_334_JUSTAS] is ____.
RESULT: 0.163 kcal/mol

QUERY: Fill blank: measured folding stability dG unfold of the sequence SAGGSAGGSAGGMLSTNVTRTITLTYFDPNGSKPIETQTVTVTTFVEIFQEPVGNWTAASAGGSAGGSAGGS [r10_50_JUSTAS] is ____.
RESULT: 0.786 kcal/mol

QUERY: Fill blank: measured folding stability dG unfold of the sequence SPAGELVSSTFPVTVTVTVWRRLPDGTWTPVGTETFTVTVTVAGIPEEVAEALRKAAETPPPPPNLAGLLSA [r9_1192_TrMRF] is ____.
RESULT: 1.93 kcal/mol

QUERY: Fill blank: measured folding stability dG unfold of the sequence KTVHIPINGMPLDEMLDMARDALREDPDEGKTITIWVPGNPEWLENLGFDKIEPYKDPERPYMRIKFKVPPS [r1_467_TrROS] is ____.
RESULT: 0.816 kcal/mol
